Test: binders from COS7 lysate, DM2A8 probe, primary screen, torsin A project, cell lysate, small-molecule microarray, fluorescence 635/667 (AID 1065)
Conditions: higher = more signal, COS7 lysate expressing mutant human TOR1A
ASSAY_METRIC: composite z-score

INSERT INTO results (compound, assay_metric, experimental_result) VALUES
  ('COCCOC(=O)N1C(=O)[C@@]2(c3cc(C#Cc4ccc(OC)cc4)ccc31)[C@H](C(=O)N1CCCCCCC1)[C@H]1C(=O)O[C@H](c3ccccc3)[C@H](c3ccccc3)N1[C@@H]2c1ccc(OCCO)cc1', 'composite z-score', 1.49),
  ('CCCCN1CC=CC23O[C@@H]4/C=C\CCC(C)OC(=O)C4[C@H]2C(=O)N(CCCCCO)[C@@H]3C1=O (stereo partly specified)', 'composite z-score', -0.421),
  ('CCOC(=O)C[C@H]1[C@H](OC(=O)c2cc3ccccc3oc2=O)[C@@H](NC(=O)C2CCCCC2)c2cc(OCCCO)ccc2N1C(=O)c1ccccc1', 'composite z-score', 0.0071),
  ('CC(C)(C)OC(=O)CC[C@@]12N=C(c3ccc(OCCCO)cc3)O[C@@H]1c1ccccc1N(CCS(=O)(=O)c1ccccc1)C2=O', 'composite z-score', 0.066),
  ('O=C1C[C@]2(c3ccc([N+](=O)[O-])cc3)C(=O)N(CCN3CCOCC3)c3cc(CO)ccc3[C@H]2N1C1CCCCC1', 'composite z-score', -0.808),
  ('COc1ccc(C(=O)O[C@H]2CC[C@]3(C)C4=C(CCC3C2(C)C)[C@]2(C)CC[C@H]([C@H](C)CCCC(C)C)[C@@]2(C)CC4)cc1 (stereo partly specified)', 'composite z-score', 0.191);
